- system-name: HGFR (Homo sapiens)
- Construct: purchased Upstate 14-526
- Sequence (P08581 974-1390 limits assumed): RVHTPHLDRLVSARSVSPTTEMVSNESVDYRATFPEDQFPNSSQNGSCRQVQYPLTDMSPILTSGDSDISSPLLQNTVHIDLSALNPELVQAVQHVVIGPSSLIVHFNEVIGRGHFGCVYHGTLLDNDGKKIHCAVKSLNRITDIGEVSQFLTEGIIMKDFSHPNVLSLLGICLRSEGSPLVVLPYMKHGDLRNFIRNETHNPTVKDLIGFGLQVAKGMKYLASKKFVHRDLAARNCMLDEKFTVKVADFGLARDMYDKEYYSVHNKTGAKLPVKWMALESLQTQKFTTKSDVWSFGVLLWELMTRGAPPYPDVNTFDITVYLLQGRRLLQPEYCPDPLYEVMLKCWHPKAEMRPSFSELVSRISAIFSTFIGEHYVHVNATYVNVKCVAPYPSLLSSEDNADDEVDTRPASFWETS
- method-notes: HGFR continuous-coupled spectrophotometric assay
- Format: biochemical
- experimental-setup: at 1 pM; Table 7, library procedure 42; read-out: % Inhibition (percent c-MET inhibition)
Each item that follows carries a reported inhibition at 1 pM.

Here's what some known entries look like.
- compound: "Nc1ncc(-c2ccc(C(=O)N3CCC(N4CCCC4)CC3)cc2)cc1OCc1cc(C(F)(F)F)cc(C(F)(F)F)c1"
  system-name: "HGFR (Homo sapiens)"
  inhibition at 1 pM: "14%"
- compound: "COc1cc(COc2cc(-c3ccc(C(=O)N4CCC(N5CCCC5)CC4)cc3)cnc2N)cc(OC)c1OC"
  system-name: "HGFR (Homo sapiens)"
  inhibition at 1 pM: "10%"
- compound: "Nc1ncc(-c2ccc(C(=O)N3CCC(N4CCCC4)CC3)cc2)cc1OCc1c(F)cccc1C(F)(F)F"
  system-name: "HGFR (Homo sapiens)"
  inhibition at 1 pM: "31%"

Record Cc1cc(C)n2nc(COc3cc(-c4ccc(C(=O)N5CCC(N6CCCC6)CC5)cc4)cnc3N)nc2n1 has HGFR (Homo sapiens) inhibition at 1 pM equal to 18%

Record N#Cc1ccc(COc2cc(-c3ccc(C(=O)N4CCC(N5CCCC5)CC4)cc3)cnc2N)cc1 has HGFR (Homo sapiens) inhibition at 1 pM equal to 8%

Record CCN1CCCC1CNC(=O)c1cccc(COc2cc(-c3ccc(C(=O)N4CCC(N5CCCC5)CC4)cc3)cnc2N)c1 (stereo not drawn) has HGFR (Homo sapiens) inhibition at 1 pM equal to 10%

Record Cc1oc(-c2ccc(F)cc2)nc1COc1cc(-c2ccc(C(=O)N3CCC(N4CCCC4)CC3)cc2)cnc1N has HGFR (Homo sapiens) inhibition at 1 pM equal to 17%

Record Nc1ncc(-c2ccc(C(=O)N3CCC(N4CCCC4)CC3)cc2)cc1OCc1cccc(C(=O)NCCc2ccccn2)c1 has HGFR (Homo sapiens) inhibition at 1 pM equal to 12%
